system: ECHCG: barnyardgrass (Echinochloa crus-galli); test: Post-emergent herbicidal test, barnyardgrass; type: in vivo; conditions: post-emergence, 336 h, 17.5 g ai/ha, 14 days after application, read-out: Visual Growth Reduction (%) 14 Days After Application ECHCG
testReadout: pest or weed control at 17.5 g/ha
The reply should consist of the numeric value with the unit placed after it.

Check out these entries, answers already filled in.
COC(=O)c1nc(-c2ccc(Cl)c3c2OC(F)(F)O3)c(Cl)c(N)c1Cl: 0%
C#CCOC(=O)c1nc(-c2ccc(Cl)c3c2OCO3)c(F)c(N)c1Cl: 0%

Problem: Quick one: pest or weed control at 17.5 g/ha for `Nc1c(F)c(-c2ccc(Br)c3c2OC(F)(F)O3)nc(C(=O)O)c1Cl` ?
Solution: 0%

---

Quick list: pest or weed control at 140 g/ha per entry.
system: ABUTH: velvetleaf (Abutilon theophrasti); test: Post-emergent herbicidal test, velvetleaf; type: in vivo; conditions: post-emergence, 336 h, 140 g ai/ha, 14 days after application, read-out: Visual Growth Reduction (%) 14 Days After Application ABUTH
Express your answer in %, writing the number without its unit.

Check out these entries, answers already filled in.
COC(=O)c1nc(-c2ccc(Br)c3c2OC(F)(F)O3)c(F)c(N)c1Cl: 85
COC(=O)c1nc(-c2cccc3c2OC(F)(F)O3)c(F)c(N)c1Cl: 85

Problem: Quick one: pest or weed control at 140 g/ha for `Nc1c(F)c(-c2cccc3c2OCO3)nc(C(=O)O)c1Cl` ?
Solution: 95

Problem: Quick one: pest or weed control at 140 g/ha for `Nc1c(F)c(-c2ccc(Br)c3c2OC(F)(F)O3)nc(C(=O)O)c1Cl` ?
Solution: 85

Problem: Quick one: pest or weed control at 140 g/ha for `Nc1c(F)c(-c2ccc(Cl)c3c2OCO3)nc(C(=O)O)c1Cl` ?
Solution: 95

Problem: Quick one: pest or weed control at 140 g/ha for `COC(=O)c1nc(-c2ccc(Cl)c3c2OC(F)(F)O3)c(Cl)c(N)c1Cl` ?
Solution: 80

Problem: Quick one: pest or weed control at 140 g/ha for `Nc1c(F)c(-c2ccc(I)c3c2OC(F)(F)O3)nc(C(=O)O)c1Cl` ?
Solution: 80

Problem: Quick one: pest or weed control at 140 g/ha for `Nc1c(F)c(-c2ccc(F)c3c2OC(F)(F)O3)nc(C(=O)O)c1Cl` ?
Solution: 75

Problem: Quick one: pest or weed control at 140 g/ha for `C#CCOC(=O)c1nc(-c2ccc(Cl)c3c2OCO3)c(F)c(N)c1Cl` ?
Solution: 100

Problem: Quick one: pest or weed control at 140 g/ha for `COC(=O)c1nc(-c2ccc(Cl)c3c2OCO3)c(F)c(N)c1Cl` ?
Solution: 95

Problem: Quick one: pest or weed control at 140 g/ha for `COC(=O)c1nc(-c2ccc(F)c3c2OCO3)c(F)c(N)c1Cl` ?
Solution: 100

Problem: Quick one: pest or weed control at 140 g/ha for `Nc1c(F)c(-c2cccc3c2OC(F)(F)O3)nc(C(=O)O)c1Cl` ?
Solution: 50

Problem: Quick one: pest or weed control at 140 g/ha for `COC(=O)c1nc(-c2ccc(I)c3c2OC(F)(F)O3)c(F)c(N)c1Cl` ?
Solution: 75

Problem: Quick one: pest or weed control at 140 g/ha for `COC(=O)c1nc(-c2ccc(F)c3c2OC(F)(F)O3)c(F)c(N)c1Cl` ?
Solution: 85

Problem: Quick one: pest or weed control at 140 g/ha for `Nc1c(F)c(-c2ccc(Cl)c3c2OC(F)(F)O3)nc(C(=O)O)c1Cl` ?
Solution: 80

Problem: Quick one: pest or weed control at 140 g/ha for `Nc1c(F)c(-c2ccc(Cl)c3c2OCO3)nc(C(=O)OCc2ccccc2)c1Cl` ?
Solution: 100

Problem: Quick one: pest or weed control at 140 g/ha for `COC(=O)c1nc(-c2cccc3c2OCO3)c(F)c(N)c1Cl` ?
Solution: 95

Problem: Quick one: pest or weed control at 140 g/ha for `COC(=O)c1nc(-c2ccc(Cl)c3c2OC(F)(F)O3)c(F)c(N)c1Cl` ?
Solution: 83
